Method: Toxicity liver stage against HepG2, at 10uM
Format: cell-based
Design: test concentration 10 uM, cell line HepG2-A16-CD81EGFP
Condition Description: human, HepG2-A16-CD81EGFP cells; read-out: INHIBITION
Measured Parameter: cytotoxicity at 10 µM (%)
Quick note: give the figure in %, leave out the unit.

Please report the recorded cytotoxicity at 10 µM for Cc1cc(=O)n2ncnc2n1CC(O)c1ccccc1F (stereo not drawn) . -13.7

Please report the recorded cytotoxicity at 10 µM for Cn1ccc2c(C(=O)NCCCS(C)(=O)=O)cccc21 . -0.915

Please report the recorded cytotoxicity at 10 µM for c1cc(CN2CCC3(CC2)CC(N2CCCC2)CO3)co1 (stereo not drawn) . 2.38

Please report the recorded cytotoxicity at 10 µM for Cc1cc(C)nc(N2CCC(c3cncc(-n4ccnc4)n3)CC2)n1 . -8.66

Please report the recorded cytotoxicity at 10 µM for CCn1c(NCc2ccco2)nc2c(C)nn(C)c2c1=O . 2.48

Please report the recorded cytotoxicity at 10 µM for Nc1nnnn1NCc1ccccc1C(F)(F)F . 5.56

Please report the recorded cytotoxicity at 10 µM for Cc1cc(CC(=O)NCc2ccnc(OCC(F)(F)F)c2)no1 . -2.17

Please report the recorded cytotoxicity at 10 µM for O=C(NCCNc1ncccn1)N1CCN(C2CCCC2)CC1 . -10

Please report the recorded cytotoxicity at 10 µM for CC(C)C1CN(Cc2nccn2C)CCC(=O)N1CC1CC1 (stereo not drawn) . -13.7

Please report the recorded cytotoxicity at 10 µM for Cc1cnn(CCNCc2csc(-c3ccccc3)n2)c1 . -9.48

Please report the recorded cytotoxicity at 10 µM for O=C(c1ccsc1)N1CCc2ncc(Cn3cncn3)n2CC1 . -78

Please report the recorded cytotoxicity at 10 µM for CC(C)CC(=O)NCCCn1cncn1 . -18.9

Please report the recorded cytotoxicity at 10 µM for O=C(NCCCC(=O)N1Cc2ccccc2C1)NCc1cccnc1 . 11.9

Please report the recorded cytotoxicity at 10 µM for CC(C)c1nn(C)cc1CNC1CCOc2ccccc21 (stereo not drawn) . 0.923

Please report the recorded cytotoxicity at 10 µM for Oc1ccccc1N1CCN(c2ncnc3sc4c(c23)CCNC4)CC1 . 4.36

Please report the recorded cytotoxicity at 10 µM for Cc1ccc(S(=O)(=O)N2C[C@H]3C[C@H](NC(=O)c4cc[nH]n4)[C@H]3C2)cc1 . 81.4

Please report the recorded cytotoxicity at 10 µM for Cc1nnc(N2CCN(C)C3(CCC(=O)N(CCO)CC3)C2)s1 (stereo not drawn) . -9.2

Please report the recorded cytotoxicity at 10 µM for CC(=O)Nc1nc(C(=O)N2CCCCC2Cn2cccn2)cs1 (stereo not drawn) . -31.4

Please report the recorded cytotoxicity at 10 µM for Cc1ccc(CN2CCc3onc(COc4cccnc4)c3C2)s1 . 5.98

Please report the recorded cytotoxicity at 10 µM for OCC1CCN(C[C@@H]2CN(C3Cc4ccccc4C3)C[C@@H]2CO)CC1 . -2.02

Please report the recorded cytotoxicity at 10 µM for Cc1cc(C)n(C2CCCN(C(=O)c3ccc(F)cc3F)C2)n1 (stereo not drawn) . 0.743

Please report the recorded cytotoxicity at 10 µM for CC(C)Cc1cc(C(=O)N2CCC(N3CCCC3)CC2)cc(O)n1 . 4.64

Please report the recorded cytotoxicity at 10 µM for Cc1noc([C@@H]2C[C@H](NC(=O)NC(C)C)CN2C)n1 . -10.1

Please report the recorded cytotoxicity at 10 µM for CNC(=O)C1Cn2ccnc2C2(CCN(C(=O)c3ccoc3C)CC2)O1 (stereo not drawn) . -157

Please report the recorded cytotoxicity at 10 µM for CCc1ccccc1C(=O)N1CCCC1CC(=O)c1cnn(C)c1 (stereo not drawn) . -1.22

Please report the recorded cytotoxicity at 10 µM for CC(C)c1ccc(O)c(C(=O)NC2CCN(c3ncccn3)CC2)c1 . 9.81

Please report the recorded cytotoxicity at 10 µM for Cn1cccc1C(=O)N1CCO[C@@H]2CN(Cc3ccco3)C[C@@H]2C1 . -97.3

Please report the recorded cytotoxicity at 10 µM for NC(=O)c1ccc2c(c1)nc1n2CCN(Cc2ccco2)C1 . -11.3

Please report the recorded cytotoxicity at 10 µM for Cn1ccc2c(-c3nccc(N)n3)ccnc21 . -16

Please report the recorded cytotoxicity at 10 µM for O=C1NC(c2ccccc2)=N[C@@]12CC[C@@H]1CN(Cc3nccs3)C[C@@H]12 . 6.37

Please report the recorded cytotoxicity at 10 µM for Cc1nnc2n1CC(CNc1ncnc3ccccc13)CC2 (stereo not drawn) . -40

Please report the recorded cytotoxicity at 10 µM for COc1ccc(C(C(=O)O)N2CCCN(C3CCCC3)CC2)cc1OC (stereo not drawn) . 7.44

Please report the recorded cytotoxicity at 10 µM for Cc1nncn1CCNC(=O)C(C)(C)c1cccc(C(F)(F)F)c1 . 8.63

Please report the recorded cytotoxicity at 10 µM for COc1cc(C(=O)NCCc2ccc(OC)c(OC)c2)on1 . 1.84

Please report the recorded cytotoxicity at 10 µM for Cn1ccnc1CN1C[C@H](N2CCOCC2)[C@@H]2OCCC[C@@H]21 . 7.19

Please report the recorded cytotoxicity at 10 µM for CS(=O)(=O)CCSc1n[nH]c(-c2ccc3c(c2)CCC3)n1 . -2.14

Please report the recorded cytotoxicity at 10 µM for COc1ccc(F)cc1NC(=O)NCC1(CN2CCOCC2)CC1 . 3.18

Please report the recorded cytotoxicity at 10 µM for CC(C)CCN(C(=O)Nc1cccc(C(=O)N(C)C)c1)C1CC1 . -14.2

Please report the recorded cytotoxicity at 10 µM for O=C(NCC(F)F)c1cc(-c2ccccc2)nc2ncnn12 . -3.37

Please report the recorded cytotoxicity at 10 µM for COc1ccc(CN2CCc3c(CNC(=O)CC#N)nn(C)c3C2)cc1 . 9.67

Please report the recorded cytotoxicity at 10 µM for COCCN1CCN(CCCS(=O)(=O)N(C)C)CC1C (stereo not drawn) . 3.54

Please report the recorded cytotoxicity at 10 µM for Cc1cccnc1CSCCCNS(C)(=O)=O . -15.1

Please report the recorded cytotoxicity at 10 µM for Cn1nccc1CNS(=O)(=O)c1cc(F)ccc1Br . 11.8

Please report the recorded cytotoxicity at 10 µM for Cc1cccc(C2CCCN(C(=O)CN3CCC(C(N)=O)CC3)C2)c1 (stereo not drawn) . -5.17

Please report the recorded cytotoxicity at 10 µM for COCCCC1(C(=O)O)CCCN(Cc2ccccc2C)C1 (stereo not drawn) . -4.58

Please report the recorded cytotoxicity at 10 µM for CC(C(=O)Nc1ccon1)n1ccc(C(F)(F)F)n1 (stereo not drawn) . 5.15

Please report the recorded cytotoxicity at 10 µM for NC(=O)CC1CCN(c2cncc(OCc3ccccc3)n2)CC1 . 8.84

Please report the recorded cytotoxicity at 10 µM for Cc1noc(C(C)Nc2ccc3oc(=O)[nH]c3c2)n1 (stereo not drawn) . -2.27

----------
Method: Toxicity liver stage against HepG2, at 10uM
Format: cell-based
Parameters: test concentration 10 uM, cell line HepG2-A16-CD81EGFP
Condition Description: human, HepG2-A16-CD81EGFP cells; read-out: INHIBITION
Field: cytotoxicity at 10 µM. Provide a value for each of the compounds that follow.
Quick note: give the figure in %, leave out the unit.

Please report the recorded cytotoxicity at 10 µM for Cc1nc2ccc(C(=O)N3CCC(COc4ccccn4)CC3)cc2[nH]1 . -8.09

Please report the recorded cytotoxicity at 10 µM for Cc1noc(C)c1C(=O)N1CCCC1c1c(C)nn(C)c1Cl (stereo unspecified) . -12.6

Please report the recorded cytotoxicity at 10 µM for O=C(CC1CCCC1)N1CCCC1c1ccc(CN2CCOCC2)cn1 (stereo unspecified) . 1.37

Please report the recorded cytotoxicity at 10 µM for c1ccc(CN2CCCC3(CCN(Cc4cccs4)C3)C2)nc1 (stereo unspecified) . -8.75

Please report the recorded cytotoxicity at 10 µM for NC1(C(=O)NCCC2CN(Cc3ccco3)CCO2)CCCC1 (stereo unspecified) . -1.03

Please report the recorded cytotoxicity at 10 µM for Cc1cc(C)n(C2CCCN(C(=O)c3cccc(F)c3F)C2)n1 (stereo unspecified) . 4.35

Please report the recorded cytotoxicity at 10 µM for O=C(NC[C@H]1OC[C@@H](NC2CCC2)[C@@H]1O)Nc1ccccc1 . -4.16

Please report the recorded cytotoxicity at 10 µM for Cc1noc(C)c1CNC(=O)N1CCC(CN2CCC(C)CC2)CC1 . 6.62

Please report the recorded cytotoxicity at 10 µM for COc1ccc(CCN(C)C(C(=O)O)c2ccc(F)c(C)c2)cc1OC (stereo unspecified) . 2.93

Please report the recorded cytotoxicity at 10 µM for c1cnn(C2CN(c3ncnc4[nH]ccc34)C2)c1 . 1.87

Please report the recorded cytotoxicity at 10 µM for CCCn1cnnc1CNC(=O)CC1C(=O)NCCN1CC=C(C)C (stereo unspecified) . 6.64

----------
Method: Toxicity liver stage against HepG2, at 10uM
Assay type: cell-based
Design: test concentration 10 uM, cell line HepG2-A16-CD81EGFP
Condition Description: human, HepG2-A16-CD81EGFP cells; read-out: INHIBITION
Measured Parameter: cytotoxicity at 10 µM (%)
Quick note: give the figure in %, leave out the unit.

Please report the recorded cytotoxicity at 10 µM for CO[C@H]1CN(CC2CC2)[C@@H]2CCCO[C@H]12 . -118

Please report the recorded cytotoxicity at 10 µM for CCn1nc2c(cc1=O)CN(CC1CCCCO1)CC2 (centres undefined) . -2.94

Please report the recorded cytotoxicity at 10 µM for Cc1cccc2[nH]c(C3CCCN(Cc4ccc(CO)o4)C3)nc12 (centres undefined) . 9.83

Please report the recorded cytotoxicity at 10 µM for Cc1nc2cc(=O)[nH]n2c(C)c1CC(=O)NCc1ccc(C#N)cc1 . -3.34

Please report the recorded cytotoxicity at 10 µM for Cn1cc(CNC(=O)C2COCC(=O)N2Cc2ccccc2)cn1 (centres undefined) . -4.88

Please report the recorded cytotoxicity at 10 µM for C[S+]([O-])CCNC(=O)Nc1cc(F)ccc1-n1cccn1 (centres undefined) . -20.9

Please report the recorded cytotoxicity at 10 µM for COc1cc(C)c(CNC(C)c2csc(C3CC3)n2)cc1OC (centres undefined) . -2.21

Please report the recorded cytotoxicity at 10 µM for CCc1noc(C)c1C(=O)N1CCC(c2[nH]ncc2S(C)(=O)=O)C1 (centres undefined) . -6.94

Please report the recorded cytotoxicity at 10 µM for O=C(CS(=O)(=O)c1ccccc1Cl)NC1CCCCNC1=O (centres undefined) . -13.2

Please report the recorded cytotoxicity at 10 µM for CC1(C)COCCN1C(=O)CCc1nc(-c2ccncc2)no1 . -6.61

Please report the recorded cytotoxicity at 10 µM for COCCCNC(=O)c1ccccc1S(C)(=O)=O . -2.83

Please report the recorded cytotoxicity at 10 µM for Cc1cc(C(=O)N2CCC3(CC2)CC(c2cccnc2)C(=O)N3)no1 (centres undefined) . -133

Please report the recorded cytotoxicity at 10 µM for Cn1cnc2c1C(COCC1CC1)CN(c1ncccn1)C2 (centres undefined) . 7.22

Please report the recorded cytotoxicity at 10 µM for Cn1cc2c(n1)C(COCC1CC1)CN(Cc1ccsc1)C2 (centres undefined) . -76.1

Please report the recorded cytotoxicity at 10 µM for CS(=O)(=O)N1CCN(CC(=O)Nc2cccc(Cl)c2)CC1 . -50.8

Please report the recorded cytotoxicity at 10 µM for O=C(NCc1ccnc(OCC(F)(F)F)c1)NCC1CCOC1 (centres undefined) . -3.22

Please report the recorded cytotoxicity at 10 µM for COc1cccc(COCC(=O)N2CCCC(N3CCCC3)CC2)c1 (centres undefined) . -4.82

Please report the recorded cytotoxicity at 10 µM for CCN1CC(C(=O)NCc2ccnc(-n3ccnc3C)c2)CC1=O (centres undefined) . -25.5

Please report the recorded cytotoxicity at 10 µM for O=C(O)C1(Cc2ccc(F)cc2F)CCCN(Cc2ccccn2)C1 (centres undefined) . 7.65

Please report the recorded cytotoxicity at 10 µM for Cc1ccc(CN2CC[C@H]3NC(=O)CC[C@@H]32)o1 . -5.28

Please report the recorded cytotoxicity at 10 µM for N#Cc1ccc(NCCc2n[nH]c(=O)[nH]2)cc1Cl . 26.5

Please report the recorded cytotoxicity at 10 µM for COC(=O)N1CC[C@@]2(C1)[C@H](OC)CN(c1ccccc1)S2(=O)=O . 5.78

Please report the recorded cytotoxicity at 10 µM for Cc1cc(NC(=O)Cn2cnc(-c3cccs3)cc2=O)sn1 . 0.0962

Please report the recorded cytotoxicity at 10 µM for OC[C@@H]1[C@H]2CN(c3ccccn3)CCN2C[C@H]1c1ccccc1 . -8.43
